TESTED_ON: T1, 4H745-AA
T1 chain: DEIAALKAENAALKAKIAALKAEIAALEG
PROTOCOL_TEXT: two-hybrid library CCmax;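 note: natural log of median RNA to DNA barcode read ratio; higher means stronger binding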
EXPERIMENTAL_PARAMETERS: mean of both orientations
Reported interaction score maps to class as: low range = under -1, mid range = from -1 up to 1, high range = 1 and over

### Prompt Kindly identify the class of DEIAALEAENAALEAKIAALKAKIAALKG [4H174-AA] .
### Response high range

### Prompt Try the binder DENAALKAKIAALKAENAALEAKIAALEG [4H1877-AA]
### Response low range

### Prompt Try the binder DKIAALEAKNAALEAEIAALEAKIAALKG [4H2438-AA]
### Response high range
